This collection of values is drawn from PubChem BioAssay (NCI).

Consider the following molecules; for each one, report its growth.
# System: K-562 leukemia
# assayProcedure: NCI-60 one-dose screen, 48 h (100 = growth as untreated, 0 = no growth, -100 = all killed)
# conditions: 10 µM unless noted
About 83,000 compounds went through this panel and 20% of them were active in at least one assay; those are over-represented in the sample as a whole.
Provide only the numeric value, understood in %.

**Q:** What value of growth has been recorded for this entry: CC1=NN(c2ccc(Cl)cc2)CC1(C)N=O (stereo unspecified)
**A:** 40.1

**Q:** What value of growth has been recorded for this entry: `O=C1c2cccnc2C(=O)c2c1c(C(=O)OCCCN1CCCCC1)c1ccccn21`
**A:** -28.5

**Q:** What value of growth has been recorded for this entry: `CCCCn1sc(=O)n(Cc2ccc(CNC(=O)OCc3ccc4c(Br)cc(Br)c(O)c4n3)cc2)c1=O`
**A:** 12.8

**Q:** What value of growth has been recorded for this entry: `Cn1cc(C(=O)c2nc(-c3c[nH]c4ccc(Br)cc34)no2)c2cc(Br)ccc21`
**A:** 37.7

**Q:** What value of growth has been recorded for this entry: `CS(=O)(=O)Cc1cnc(C2OCCO2)s1`
**A:** 125

**Q:** What value of growth has been recorded for this entry: CC(/C=C1\SC(=S)N(CC(=O)NC(Cc2c[nH]c3ccccc23)C(=O)O)C1=O)=C\c1ccccc1 (stereo unspecified)
**A:** 107

**Q:** What value of growth has been recorded for this entry: CC(CN)[C@@H]1CC[C@]2(CO)CC[C@]3(C)[C@H](CC[C@@H]4[C@@]5(C)CCC(N)C(C)(C)[C@@H]5CC[C@]43C)[C@@H]12 (stereo partly specified)
**A:** -55.8

**Q:** What value of growth has been recorded for this entry: `COc1ccc(Cc2cnc(NC(=O)c3sc4ccccc4c3Cl)s2)cc1`
**A:** 7

**Q:** What value of growth has been recorded for this entry: COc1cccc(NC(=O)c2cccc(C3CCc4c(cc(OC)c(OC)c4OC)O3)c2)c1 (stereo unspecified)
**A:** 35.6

**Q:** What value of growth has been recorded for this entry: `COc1cc2c(cc1O)[C@@]1(C)[C@H](c3ccccc3Br)OC(=O)N1CC2`
**A:** 75

**Q:** What value of growth has been recorded for this entry: `O=C(Nc1ccc(F)cc1)Nc1ccccc1CNc1nc(Nc2ccc(OCCN3CCCC3)cc2)ncc1Cl`
**A:** 2.99

**Q:** What value of growth has been recorded for this entry: CC1O[C@@H]2C[C@@](O)([C@H]1O)n1c3ccccc3c3c4c(c5c6ccccc6n2c5c31)C(=O)NC4=O (stereo partly specified)
**A:** 30

**Q:** What value of growth has been recorded for this entry: COc1ccc(C2C3=C(COC3=O)N(CCO)c3cc4c(cc32)OCCO4)cc1OC (stereo unspecified)
**A:** 27.6

**Q:** What value of growth has been recorded for this entry: `COC(=O)c1c2c(c(C)[n+]([O-])c1C)C(=O)C=CC2=O`
**A:** 10.5

**Q:** What value of growth has been recorded for this entry: COc1ccc(C2=NN(C(C)=O)C(c3ccc(Oc4ccnc5cc(Cl)ccc45)c(OC)c3)C2)cc1 (stereo unspecified)
**A:** 68.6

**Q:** What value of growth has been recorded for this entry: `Cn1cccc1/C=C1\C(=O)Nc2ccccc21`
**A:** 98.9

**Q:** What value of growth has been recorded for this entry: `CCOC(=O)N1CCN(S(=O)(=O)c2oc(-c3ccc(Cl)cc3)nc2C#N)CC1`
**A:** 9.23

**Q:** What value of growth has been recorded for this entry: `N#Cc1c(-c2cccc([N+](=O)[O-])c2)cc(-c2ccc(Nc3nc(Nc4ccc(F)cc4)nc(Nc4ccc(F)cc4)n3)cc2)nc1N`
**A:** 80.3

**Q:** What value of growth has been recorded for this entry: `CNC(=O)c1c(NC(=O)c2ccc(C(C)(C)C)cc2)sc2c(CN(C)C)c(O)ccc12`
**A:** -29.3

**Q:** What value of growth has been recorded for this entry: Nc1c(C(=O)Nc2ccccn2)sc2nc3c(cc12)C(O)CCC3 (stereo unspecified)
**A:** 20.6

**Q:** What value of growth has been recorded for this entry: Nc1ncnc2c1c(-c1ccc(Oc3ccccc3)cc1)nn2CC1SSCC1O (stereo unspecified)
**A:** 11.2

**Q:** What value of growth has been recorded for this entry: `C=C(c1ccc(C(=O)O)cn1)c1cc2c(cc1C)C(C)(C)CCC2(C)C`
**A:** 92.3

**Q:** What value of growth has been recorded for this entry: `COc1ccc(-c2ccc(-c3ccc(C(=N)N)cn3)s2)cc1`
**A:** 0.33

**Q:** What value of growth has been recorded for this entry: `Cn1cc(-c2nonc2-c2c[nH]c3ccc(F)cc23)c2cc(Br)ccc21`
**A:** 7.64

**Q:** What value of growth has been recorded for this entry: `COC(=O)/C=C1/SC(=Nc2cccc(Cl)c2)N(CCc2c[nH]c3ccc(O)cc23)C1=O`
**A:** 5.71

**Q:** What value of growth has been recorded for this entry: `N#Cc1c(N2CCOCC2)nc(=S)[nH]c1-c1ccccc1`
**A:** 93.4

**Q:** What value of growth has been recorded for this entry: O=C(NCc1ccc2c(c1)OCO2)NCC1CCCC(CNC(=O)NCc2ccc3c(c2)OCO3)C1 (stereo unspecified)
**A:** 95.3

**Q:** What value of growth has been recorded for this entry: `CN(C)c1ccc(/C=C2/C=C(c3ccccc3)OC2=O)cc1`
**A:** 46.9

**Q:** What value of growth has been recorded for this entry: `O=C(CCl)Nc1ccc2c(Nc3cc(O)ccc3Cl)ncnc2c1`
**A:** -36

**Q:** What value of growth has been recorded for this entry: Cc1ccc(S(=O)(=O)n2cc(C3C(Cl)C(=O)N3c3ccc(N4CCOCC4=O)cc3)c3ccccc32)cc1 (stereo unspecified)
**A:** 22.5

**Q:** What value of growth has been recorded for this entry: CO[C@H](C(=O)[C@@H](O)[C@@H](C)O)[C@@H]1Cc2cc3cc(O[C@H]4C[C@@H](O[C@H]5C[C@@H](O)[C@H](O)C(C)O5)[C@H](O)C(C)O4)c(C)c(O)c3c(O)c2C(=O)[C@H]1O[C@H]1C[C@@H](O[C@H]2C[C@@H](O[C@H]3C[C@@H](OC)[C@H](O)C(C)O3)[C@@H](O)C(C)O2)C(O)(O)C(C)O1 (stereo partly specified)
**A:** 12.1

**Q:** What value of growth has been recorded for this entry: C#CC#CC#CC#CC#CC#CC#CC#CCC1OCC(COC(=O)O[C@@H](C(=O)O[C@H]2C[C@@]3(O)[C@@H](OC(=O)c4ccccc4)[C@@H]4[C@]5(OC(C)=O)CO[C@@H]5C[C@H](O)[C@@]4(C)C(=O)[C@H](OC(C)=O)C(=C2C)C3(C)C)[C@@H](NC(=O)c2ccccc2)c2ccccc2)O1 (stereo partly specified)
**A:** 12.6

**Q:** What value of growth has been recorded for this entry: `CCOc1ccc(NC(=O)c2cc(OC)c(OC)c(OC)c2)cc1`
**A:** 17

**Q:** What value of growth has been recorded for this entry: `C=C1C(=O)O[C@H]2[C@H]1CC/C(COC(=O)c1cc3cc(F)ccc3[nH]1)=C\CC[C@@]1(C)O[C@@H]21`
**A:** 0.0225

**Q:** What value of growth has been recorded for this entry: `CN(C)Cc1ccc(C(=O)Nc2ccc3ncnc(Nc4ccc(Oc5cccc(F)c5)c(Cl)c4)c3c2)cc1`
**A:** -39.3

**Q:** What value of growth has been recorded for this entry: `c1ccc(CCc2ccccc2-c2cc(-c3ccccc3)on2)cc1`
**A:** 71.2

----------
# Tested on: SNB-19 CNS
# assayProcedure: NCI-60 one-dose screen, 48 h (100 = growth as untreated, 0 = no growth, -100 = all killed)
# conditions: 10 µM unless noted
# Protocol: Growth inhibition of the SNB-19 human tumor cell line is measured as a screen for anti-cancer activity. Cells are grown in 96 well plates and exposed to the test compound for 48 hours. Compounds are tested at a single concentration, which is 10^-5 M for most compounds. The reported endpoint is percent growth (GI% or GIPRCNT), where numbers from 0 - 100% represent growth inhibition, and numbers from -100% - 0 represent cell death. For example, a value of 40 represents 60% growth inhibition. […]
Compounds without any hit were thinned out: in the full panel of roughly 83,000, 20% have a hit.
Rule: growth below 50% gives Y, anything at or above gives N.

**Q:** Quick check: growth of `CCCCCCOC(=O)CC1=C(C)/C(=C/c2[nH]c(-c3ccc[nH]3)cc2OC)N=C1C` under 50%?
**A:** Y

**Q:** Quick check: growth of `Cc1cccc(N2CCN(C(=S)c3ccc4c(c3)OCO4)CC2)c1` under 50%?
**A:** Y

**Q:** Quick check: growth of O=C(CCC(=O)c1nc2ncccc2[nH]1)NN1C(=O)CSC1c1ccc(Cl)cc1 (stereo not given) under 50%?
**A:** N

**Q:** Quick check: growth of `CCN(CC)CCOc1nc2c3ccc(Cl)cc3nn2c2ccccc12` under 50%?
**A:** Y

**Q:** Quick check: growth of `COc1cc(-c2nc3occn3c2-c2ccnc(NCCCNS(=O)(=O)c3ccccc3)n2)ccc1F` under 50%?
**A:** N

**Q:** Quick check: growth of `O=C(CSc1nc2ccc([N+](=O)[O-])cc2[nH]1)Nc1ccc(Br)cc1` under 50%?
**A:** N

**Q:** Quick check: growth of CC1(C)C2CC=C(/C=N/NC(=O)C3CCC(=O)N3)C1C2 (stereo not given) under 50%?
**A:** N

**Q:** Quick check: growth of O=C1CC2C=CCN2C=C1NC(=O)C1CCCCC1 (stereo not given) under 50%?
**A:** N

**Q:** Quick check: growth of `Cc1nn(-c2ccccc2)c(N2CCCCC2)c1/C=N/NC(=O)Cn1c(=O)sc2ccccc21` under 50%?
**A:** N

**Q:** Quick check: growth of `N=C(N)c1ccc(-c2ccc(-c3ccc(Cl)cc3)o2)o1` under 50%?
**A:** Y
